- experimental details: chemical genetic growth profiling, strain panel (AID 1159580);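 also: tested at 20 µM; growth read once vehicle control cultures reached saturation at 30 °C; 1 = growth at the plate median or of vehicle wells; lower values mean less growth of the strain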
- condition label: S. cerevisiae deletion strains, growth OD, locus YAL013W, strain DEP1, stronger effect = lower value
Screen size: about 5,500 compounds; about 2,000 (36%) were called active. Not shown: some 18% with an inconclusive outcome. The list shows a part of the results.
Hi there, I'd appreciate the recorded normalized growth for every entry that follows.
One number for each entry.

In the examples that follow, each entry is paired with its recorded normalized growth.
>>> reported("O=C(O)c1cccc([N+](=O)[O-])c1C(=O)Nc1ccc(F)cc1")
1.01
>>> reported("COC(=O)c1cccc([N+](=O)[O-])c1-c1c(C(=O)OC)cccc1[N+](=O)[O-]")
0.995
>>> reported("Cc1ccc(S(=O)(=O)N2CCC(C(c3ccccc3)c3ccccc3)CC2)cc1")
0.998

# batch size: 8; output normalized growth per entry
1. CC(=O)N[C@H](C(=O)O)C(C)(C)SN=O
2. O=S(=O)(c1ccc(Cl)cc1)N1CCN(Cc2ccccc2)CC1
3. CC(=O)Nc1ccc(S(=O)(=O)NCCCN2CCN(Cc3ccccc3)CC2)cc1Cl
4. Cc1ccc(S(=O)(=O)N2CCCCCC2)cc1
5. Cc1cc(N=C(N)N=C(N)N)no1
6. CCOC(=O)CCC(C#N)(c1ccc(Cl)cc1)N1CCOCC1 (stereo unspecified)
7. O=C(Cc1ccccc1)NC1CCN(S(=O)(=O)c2ccc(Cl)cc2)CC1
8. COc1ccc(/C=C2/C(=O)N(c3cccc(Cl)c3)N=C2C)cc1

Data returned:
1.01
1.01
0.993
0.98
1.01
0.99
1.01
0.983
